Record type: Ki measurement. Applies to: UniProt O43570
Sequence (O43570 whole entry): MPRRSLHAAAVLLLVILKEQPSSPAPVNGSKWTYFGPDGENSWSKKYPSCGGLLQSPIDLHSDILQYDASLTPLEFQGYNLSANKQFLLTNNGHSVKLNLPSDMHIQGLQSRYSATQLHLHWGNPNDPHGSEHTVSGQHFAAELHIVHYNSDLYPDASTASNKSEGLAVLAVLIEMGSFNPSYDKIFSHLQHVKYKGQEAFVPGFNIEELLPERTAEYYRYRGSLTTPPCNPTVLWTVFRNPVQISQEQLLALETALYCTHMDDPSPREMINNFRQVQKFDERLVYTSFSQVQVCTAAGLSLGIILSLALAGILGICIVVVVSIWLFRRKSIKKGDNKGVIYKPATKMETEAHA
test readout: Ki (nM)

Here's what some known entries look like.
>>> print(df.to_string())
                                   compound  meas_value
0  CCC(C)NC(=O)Nc1ccc(S(N)(=O)=O)cc1 (stereo not given)         637
1     COC(=O)CCCNC(=O)Nc1cccc(S(N)(=O)=O)c1         494
2      NS(=O)(=O)c1cccc(NC(=O)Nc2ccccc2F)c1         512
3  COC(=O)CNC(=O)CNC(=O)Nc1cccc(S(N)(=O)=O)c1         344
4  CCC(C)NC(=O)Nc1cccc(S(N)(=O)=O)c1 (stereo not given)         600

[I] COC(=O)CCC(NC(=O)Nc1ccc(S(N)(=O)=O)cc1)C(=O)OC (stereo not given)
[II] NS(=O)(=O)c1ccc(NC(=O)NCC(=O)NCC(=O)O)cc1
[III] COC(=O)[C@H](Cc1ccccc1)NC(=O)Nc1ccc(S(N)(=O)=O)cc1
Challenge: Sort ascending by Ki. Kindly provide the labels arranged according to the requested ordering.
Response given: III, II, I

[I] NS(=O)(=O)c1cccc(NC(=O)Nc2ccccc2)c1
[II] CC(C)NC(=O)Nc1cccc(S(N)(=O)=O)c1
Challenge: Compare reported Ki values for I and II . Which is lower? Answer by quoting the chosen item's label.
Response given: I
(I: 356 nM, II: 612 nM)
